System: MV-4-11 (carrying MLL-AF4)
Test: Inhibition of proliferation of human tumor cells (Alamar Blue, 7 days), MV-4-11
Assay type: cell-based
Conditions: Homo sapiens, MV4-11, 168 h, MV-4-11 cells (carrying MLL-AF4), method calls the value GI50
pIC50: −log10 of the molar value.
quantity-measured: pIC50

P: CNCCCC(C(C)C)N1CC(c2cc(-c3ccc(F)cc3C(=O)N(CC(F)F)C(C)C)c3cnccn23)C1 (stereo not drawn)
Q: CC(=O)N1CCN(CCC[C@H](C(C)C)N2CC(c3cc(-c4ccc(F)cc4C(=O)N4CCOC[C@H]4C)c4c(F)nc(C)n4c3)C2)CC1
Q: Consider entries P and Q . Which has the numerically lower pIC50? Give the label of your selection.
Ans: P
(P: 7.05, Q: 8.07)
